// provenance: BigSolDB 2.1

conditions: in acetonitrile, 300.65 K
property label: solubility (mole fraction)
// return a plain number; no unit text

I have this compound here, O=[N+]([O-])c1cn[nH]c1 , and I need its recorded solubility (mole fraction).
0.0648

---

conditions: in methanol, 290.65 K
property label: solubility (mole fraction)
// return a plain number; no unit text

I have this molecule here, O=[N+]([O-])c1cn[nH]c1 , and I need its recorded solubility (mole fraction).
0.0583

---

conditions: in ethanol, 280.65 K
property label: solubility (mole fraction)
// return a plain number; no unit text

I have this compound here, O=[N+]([O-])c1cn[nH]c1 , and I need its recorded solubility (mole fraction).
0.0389
